Source listed as PubChem BioAssay (NCI).

# Test system: NCI-H460 lung
# ASSAY OVERVIEW: NCI-60 one-dose screen, 48 h (100 = growth as untreated, 0 = no growth, -100 = all killed)
# CONDITION CONTEXT: 10 µM
Compounds without any hit were thinned out: in the full panel of roughly 83,000, 20% have a hit.
This section presents compounds with their documented growth values.
Numeric answer only, unit % assumed.

// solved cases for growth follow
COc1cc(C(c2c[nH]c3ccccc23)N2CCCC2)ccc1OCc1ccccc1 (stereo not drawn) ... 98.9
COc1ccc(-c2cc(/C=C3\C(=O)Nc4cc(Cl)ccc43)[nH]n2)cc1 ... 22
CCCCCCCCCCCCCCCC(=O)N1CCN(C)CC1 ... 68.6

Noted for CCOC(=O)CSC(=S)SCC(=O)OCC : its growth reads 107

Noted for Cc1cc(OI)c(C(C)C)cc1-c1cc(C(C)C)c(OI)cc1C : its growth reads 106

Noted for c1ccc(CC(NCCNC(Cc2ccccc2)c2ccccc2)c2ccccc2)cc1 (stereo not drawn) : its growth reads -13.9

Noted for Cc1ccc(C2C=C(c3ccc(Cl)cc3)N=C3SC=CN32)c(Br)c1 (stereo not drawn) : its growth reads 84.4

Noted for N#C/C(=C\N1C(=O)/C(=C/c2cccc([N+](=O)[O-])c2)SC1=S)c1nc2ccccc2s1 : its growth reads 94.7

Noted for C=CCNC(=S)NN : its growth reads 99

Noted for CCOC(=O)[C@@H]1[C@H](c2ccccc2)[C@H]([N+](=O)[O-])[C@H](c2cn(-c3ccccc3)nc2C)N1Cc1ccccc1 : its growth reads 41.9

Noted for O=C(CSc1nnc(-c2ccc(Cl)cc2)o1)c1ccccc1 : its growth reads 105

Noted for CC(C)C[C@H](NC(=O)CCn1ccc2ccccc2c1=O)B(O)O : its growth reads 93.8

Noted for CC1(CO)CCCC12OCCO2 (stereo not drawn) : its growth reads 105

Noted for CC(=O)O[C@H]1CC[C@@]2(C)[C@@H](CC[C@@H]3[C@@H]2CC[C@]2(C)C=C(C=O)C[C@@H]32)C1 : its growth reads 103

Noted for CCOC(=O)c1cc2c(n1Cc1ccccc1)-c1oncc1CC2 : its growth reads 19.6

Noted for Cc1ccc(NC(=O)/C=N/O)cc1C : its growth reads 103

Noted for COc1ccc(-c2csc(NC(=O)CO[N+](=O)[O-])n2)cc1 : its growth reads 94.1

Noted for COc1ccc(CSc2nc3cc(OC)c(OC)cc3c(=O)n2-c2ccc(OC)cc2OC)cc1 : its growth reads 90.6

Noted for Nc1ccc(Sc2ccc3c4c2cccc4c(=O)n2c4ccccc4nc32)cc1 : its growth reads 9.47

---

This section presents molecules with their documented growth values.
# Tested on: OVCAR-5 ovarian
# ASSAY OVERVIEW: NCI-60 one-dose screen, 48 h (100 = growth as untreated, 0 = no growth, -100 = all killed)
# CONDITION CONTEXT: 10 µM
Compounds without any hit were thinned out: in the full panel of roughly 83,000, 20% have a hit.
Numeric answer only, unit % assumed.

// solved cases for growth follow
COc1ccc2oc(=O)cc(C3c4ccc([nH]4)C(c4cc(=O)oc5ccc(OC)cc45)c4ccc([nH]4)C(c4cc(=O)oc5ccc(OC)cc45)c4ccc([nH]4)C(c4cc(=O)oc5ccc(OC)cc45)c4ccc3[nH]4)c2c1 (stereo not drawn) ... 3.08
O=C(COc1ccc(-c2nc3ccccc3[nH]2)cc1)N=Nc1c(O)[nH]c2ccccc12 ... 116
CS(=O)(=O)Nc1ccc(OCc2nnc(-c3ccc(Cl)cc3)o2)c(F)c1 ... 99.5
NC(N)=NS(=O)(=O)c1ccc(Nc2ccc3nnc(-c4ccncc4)n3n2)cc1 ... 100
COc1ccc(-c2nnc(SC/C(=N\O)c3ccccc3)o2)cc1 ... 108

Noted for COc1cc(Nc2ccnc(N3CCN(c4ccnc5cc(Cl)ccc45)CC3)n2)cc(OC)c1 : its growth reads 30.8

Noted for COc1ccc(CSc2nc3cc(OC)c(OC)cc3c(=O)n2-c2ccc(OC)cc2OC)cc1 : its growth reads 102

Noted for Cc1nc2ccc(-n3c(-c4ccc(Cl)cc4)nc4ccccc4c3=O)cc2n1Cc1ccccc1 : its growth reads 118
